test: Pharmacokinetics assay in rats, intragastric; type: in vivo; settings: both sexes, rat, plasma, po, SD rats, 25 mg/kg, read-out: Area Under Curve AUC
assay_metric: AUC

| smiles_structure | assay_metric | measured_result |
| --- | --- | --- |
| CCOc1cc2ncc(C#N)c(Nc3ccc(OCc4ccccn4)c(Cl)c3)c2cc1NC(=O)/C=C/[C@H]1CCCN1C | AUC | 52800 ng·h/mL |
| CCOc1cc2ncc(C#N)c(Nc3ccc(OCc4ccccn4)c(Cl)c3)c2cc1NC(=O)/C=C/[C@@H]1CCCN1C | AUC | 52600 ng·h/mL |
